- System: T1, low-density lipoprotein receptor-related protein (LRP), purified (human, UniProt Q07954 20-4544)
- T1 construct: mature; also called low density lipoprotein receptor-related protein/α2-macroglobulin receptor; LRP receptor
- T1 sequence (Q07954 20-4544, form in doubt): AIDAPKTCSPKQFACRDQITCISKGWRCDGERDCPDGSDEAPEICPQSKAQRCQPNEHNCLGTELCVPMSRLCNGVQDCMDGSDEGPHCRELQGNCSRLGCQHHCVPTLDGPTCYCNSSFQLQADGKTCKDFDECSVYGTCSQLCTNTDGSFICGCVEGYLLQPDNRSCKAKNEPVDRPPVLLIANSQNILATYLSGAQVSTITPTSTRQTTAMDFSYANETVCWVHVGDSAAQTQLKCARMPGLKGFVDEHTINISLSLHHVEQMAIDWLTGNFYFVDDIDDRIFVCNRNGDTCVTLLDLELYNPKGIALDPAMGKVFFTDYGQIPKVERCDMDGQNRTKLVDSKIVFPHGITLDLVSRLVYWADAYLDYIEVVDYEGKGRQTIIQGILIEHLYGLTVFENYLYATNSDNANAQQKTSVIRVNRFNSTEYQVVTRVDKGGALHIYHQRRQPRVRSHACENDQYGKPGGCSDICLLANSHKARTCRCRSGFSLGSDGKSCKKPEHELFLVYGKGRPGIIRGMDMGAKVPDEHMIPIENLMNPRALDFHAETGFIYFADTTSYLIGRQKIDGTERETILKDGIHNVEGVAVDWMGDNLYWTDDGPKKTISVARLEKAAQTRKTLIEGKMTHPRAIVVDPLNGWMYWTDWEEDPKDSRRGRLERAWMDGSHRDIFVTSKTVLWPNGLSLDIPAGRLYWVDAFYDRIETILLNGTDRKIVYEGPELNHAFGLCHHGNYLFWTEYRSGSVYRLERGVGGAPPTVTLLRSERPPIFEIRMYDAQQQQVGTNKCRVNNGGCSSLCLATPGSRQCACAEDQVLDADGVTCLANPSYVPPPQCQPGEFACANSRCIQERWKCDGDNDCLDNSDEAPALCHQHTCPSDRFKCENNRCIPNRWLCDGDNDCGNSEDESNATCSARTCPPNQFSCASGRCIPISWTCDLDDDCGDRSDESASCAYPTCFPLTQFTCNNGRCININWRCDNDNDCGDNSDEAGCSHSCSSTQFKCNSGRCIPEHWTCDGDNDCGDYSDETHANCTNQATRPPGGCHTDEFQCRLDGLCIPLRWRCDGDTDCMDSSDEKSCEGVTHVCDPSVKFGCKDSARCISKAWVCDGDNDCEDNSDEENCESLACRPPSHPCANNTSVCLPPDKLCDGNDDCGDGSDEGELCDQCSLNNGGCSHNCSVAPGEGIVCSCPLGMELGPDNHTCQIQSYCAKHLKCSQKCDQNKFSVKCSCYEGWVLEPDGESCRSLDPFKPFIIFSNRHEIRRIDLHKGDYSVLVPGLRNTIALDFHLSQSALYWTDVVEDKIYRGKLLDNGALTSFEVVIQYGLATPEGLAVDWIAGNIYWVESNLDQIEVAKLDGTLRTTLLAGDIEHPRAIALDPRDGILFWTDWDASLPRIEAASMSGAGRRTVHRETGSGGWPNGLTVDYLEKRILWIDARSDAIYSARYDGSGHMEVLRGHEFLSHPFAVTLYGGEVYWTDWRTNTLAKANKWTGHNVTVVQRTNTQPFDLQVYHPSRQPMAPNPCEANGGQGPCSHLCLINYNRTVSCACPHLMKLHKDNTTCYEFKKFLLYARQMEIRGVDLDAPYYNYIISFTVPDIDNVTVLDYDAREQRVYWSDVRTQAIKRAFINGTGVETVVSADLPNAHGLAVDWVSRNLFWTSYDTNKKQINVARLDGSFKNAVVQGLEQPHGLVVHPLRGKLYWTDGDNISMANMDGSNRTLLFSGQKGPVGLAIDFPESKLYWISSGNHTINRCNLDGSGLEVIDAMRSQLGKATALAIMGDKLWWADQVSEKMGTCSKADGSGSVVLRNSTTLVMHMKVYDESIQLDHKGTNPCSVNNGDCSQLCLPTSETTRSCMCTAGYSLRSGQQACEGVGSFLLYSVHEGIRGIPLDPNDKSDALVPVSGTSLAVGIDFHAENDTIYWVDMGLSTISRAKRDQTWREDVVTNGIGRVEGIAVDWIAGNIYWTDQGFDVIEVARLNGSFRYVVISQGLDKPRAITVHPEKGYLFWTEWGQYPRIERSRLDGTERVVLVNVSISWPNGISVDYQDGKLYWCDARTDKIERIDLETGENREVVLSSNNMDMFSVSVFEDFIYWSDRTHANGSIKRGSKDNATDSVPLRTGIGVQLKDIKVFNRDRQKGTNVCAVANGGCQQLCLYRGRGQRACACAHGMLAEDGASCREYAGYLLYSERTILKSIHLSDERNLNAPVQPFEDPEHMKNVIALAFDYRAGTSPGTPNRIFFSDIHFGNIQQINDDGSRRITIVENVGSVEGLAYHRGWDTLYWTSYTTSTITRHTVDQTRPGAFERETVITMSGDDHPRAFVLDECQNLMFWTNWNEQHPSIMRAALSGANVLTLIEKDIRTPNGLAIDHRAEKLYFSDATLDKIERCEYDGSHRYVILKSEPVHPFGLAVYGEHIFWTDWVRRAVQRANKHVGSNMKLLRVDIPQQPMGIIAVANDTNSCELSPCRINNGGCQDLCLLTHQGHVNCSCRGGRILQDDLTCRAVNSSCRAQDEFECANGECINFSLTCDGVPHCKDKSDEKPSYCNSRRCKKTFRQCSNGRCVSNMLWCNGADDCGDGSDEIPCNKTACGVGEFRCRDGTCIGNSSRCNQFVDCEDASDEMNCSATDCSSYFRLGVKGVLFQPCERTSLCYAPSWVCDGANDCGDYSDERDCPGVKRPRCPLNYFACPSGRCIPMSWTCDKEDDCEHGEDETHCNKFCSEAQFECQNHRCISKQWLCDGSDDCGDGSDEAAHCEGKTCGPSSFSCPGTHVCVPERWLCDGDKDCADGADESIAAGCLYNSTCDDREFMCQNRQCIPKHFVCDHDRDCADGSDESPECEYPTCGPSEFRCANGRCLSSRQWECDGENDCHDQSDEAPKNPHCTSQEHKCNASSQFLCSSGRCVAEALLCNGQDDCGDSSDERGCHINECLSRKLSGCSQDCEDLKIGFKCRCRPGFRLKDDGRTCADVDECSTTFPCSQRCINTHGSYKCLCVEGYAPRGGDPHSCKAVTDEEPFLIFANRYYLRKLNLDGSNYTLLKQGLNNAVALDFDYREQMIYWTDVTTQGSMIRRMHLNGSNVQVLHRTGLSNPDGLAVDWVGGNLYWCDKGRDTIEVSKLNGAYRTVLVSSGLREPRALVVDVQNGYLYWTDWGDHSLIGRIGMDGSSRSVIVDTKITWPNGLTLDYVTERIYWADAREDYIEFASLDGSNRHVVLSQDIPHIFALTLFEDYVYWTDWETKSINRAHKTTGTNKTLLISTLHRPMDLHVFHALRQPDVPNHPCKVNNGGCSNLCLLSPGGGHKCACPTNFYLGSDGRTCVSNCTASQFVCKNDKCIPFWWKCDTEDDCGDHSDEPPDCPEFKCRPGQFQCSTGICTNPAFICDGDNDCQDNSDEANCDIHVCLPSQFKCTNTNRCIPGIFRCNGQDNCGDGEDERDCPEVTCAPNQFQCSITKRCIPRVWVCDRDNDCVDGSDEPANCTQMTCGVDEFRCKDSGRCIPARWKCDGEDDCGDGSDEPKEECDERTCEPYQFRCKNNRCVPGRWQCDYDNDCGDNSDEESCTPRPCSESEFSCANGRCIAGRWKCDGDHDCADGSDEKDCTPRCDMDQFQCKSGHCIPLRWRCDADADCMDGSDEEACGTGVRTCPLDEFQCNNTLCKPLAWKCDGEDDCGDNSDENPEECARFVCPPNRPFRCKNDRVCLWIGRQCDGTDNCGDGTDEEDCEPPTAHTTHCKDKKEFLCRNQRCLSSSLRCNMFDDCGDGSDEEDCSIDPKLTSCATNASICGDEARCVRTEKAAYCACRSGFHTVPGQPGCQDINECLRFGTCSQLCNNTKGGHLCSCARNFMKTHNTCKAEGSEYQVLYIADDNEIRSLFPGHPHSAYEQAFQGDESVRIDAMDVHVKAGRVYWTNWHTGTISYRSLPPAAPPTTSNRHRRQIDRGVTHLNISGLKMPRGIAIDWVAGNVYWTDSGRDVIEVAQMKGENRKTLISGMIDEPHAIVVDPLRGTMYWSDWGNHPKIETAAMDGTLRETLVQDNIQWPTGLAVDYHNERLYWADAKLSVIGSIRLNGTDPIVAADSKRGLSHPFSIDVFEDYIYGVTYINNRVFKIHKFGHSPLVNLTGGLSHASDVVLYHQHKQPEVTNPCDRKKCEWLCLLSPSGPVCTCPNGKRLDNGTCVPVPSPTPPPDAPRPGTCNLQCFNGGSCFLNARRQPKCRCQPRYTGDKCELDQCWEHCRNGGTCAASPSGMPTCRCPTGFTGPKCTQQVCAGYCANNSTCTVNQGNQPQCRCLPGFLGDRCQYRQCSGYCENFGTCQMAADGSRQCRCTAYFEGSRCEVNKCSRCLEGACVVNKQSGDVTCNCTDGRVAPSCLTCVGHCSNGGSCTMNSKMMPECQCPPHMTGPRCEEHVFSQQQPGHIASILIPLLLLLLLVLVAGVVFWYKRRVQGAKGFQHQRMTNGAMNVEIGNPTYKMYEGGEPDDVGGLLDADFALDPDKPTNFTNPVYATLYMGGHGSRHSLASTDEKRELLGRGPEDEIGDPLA
- Experimental details: SPR, BIAcore 3000, one-site model, KD = koff/kon
Experimental endpoint: Kd (nM)
Field format: number, assumed nM, no unit text.

{"columns": ["Binder", "Reported"],
 "data": [
  ["recombinant A2 mutant #10 (Arg-489 to Ala) (other, hx-A2 form from Sf9 cells) SGAKKHPKTWVHYIAAEEEDWDYAPLVLAPDDRSYKSQYLNNGPQRIGRKYKKVRFMAYTDETFKTREAIQHESGILGPLLYGEVGDTLLIIFKNQASRPYNIYPHGITDVRPLYSARLPKGVKHLKDFPILPGEIFKYKWTVTVEDGPTKSDPRCLTRYYSSFVNMERDLASGLIGPLLICYKESVDQRGNQIMSDKRNVILFSVFDENRSWYLTENIQRFLPNPAGVQLEDPEFQASNIMHSINGYVFDSLQLSVCLHEVAYWYILSIGAQTDFLSVFFSGYTFKHKMVYEDTLTLFPFSGETVFMSMENPGLWILGCHNSDFRNRGMTALLKVSSCDKNTGDYYEDSYEDISAYLLSKNNAIEPR", 150]
]}

Pending binder:
Requested read-out: Kd. Entry: recombinant A2 mutant #8 (Tyr-487 to Ala) (other, hx-A2 form from Sf9 cells) SGAKKHPKTWVHYIAAEEEDWDYAPLVLAPDDRSYKSQYLNNGPQRIGRKYKKVRFMAYTDETFKTREAIQHESGILGPLLYGEVGDTLLIIFKNQASRPYNIYPHGITDVRPLASRRLPKGVKHLKDFPILPGEIFKYKWTVTVEDGPTKSDPRCLTRYYSSFVNMERDLASGLIGPLLICYKESVDQRGNQIMSDKRNVILFSVFDENRSWYLTENIQRFLPNPAGVQLEDPEFQASNIMHSINGYVFDSLQLSVCLHEVAYWYILSIGAQTDFLSVFFSGYTFKHKMVYEDTLTLFPFSGETVFMSMENPGLWILGCHNSDFRNRGMTALLKVSSCDKNTGDYYEDSYEDISAYLLSKNNAIEPR
97

# credit: patent US20070232789A1
